This collection of values is drawn from patent US20250019450A1.

Biological target: T1, human IL-12Rβ2-huFc-his (R&D system), biotinylated (human, UniProt Q99665 24-622, limits assumed, biotinylated)
T1 construct: bought; captured on Neutravidin in the ELISA; also called Bio-huIL-12Rβ2-huFc-His
T1 sequence (looked up): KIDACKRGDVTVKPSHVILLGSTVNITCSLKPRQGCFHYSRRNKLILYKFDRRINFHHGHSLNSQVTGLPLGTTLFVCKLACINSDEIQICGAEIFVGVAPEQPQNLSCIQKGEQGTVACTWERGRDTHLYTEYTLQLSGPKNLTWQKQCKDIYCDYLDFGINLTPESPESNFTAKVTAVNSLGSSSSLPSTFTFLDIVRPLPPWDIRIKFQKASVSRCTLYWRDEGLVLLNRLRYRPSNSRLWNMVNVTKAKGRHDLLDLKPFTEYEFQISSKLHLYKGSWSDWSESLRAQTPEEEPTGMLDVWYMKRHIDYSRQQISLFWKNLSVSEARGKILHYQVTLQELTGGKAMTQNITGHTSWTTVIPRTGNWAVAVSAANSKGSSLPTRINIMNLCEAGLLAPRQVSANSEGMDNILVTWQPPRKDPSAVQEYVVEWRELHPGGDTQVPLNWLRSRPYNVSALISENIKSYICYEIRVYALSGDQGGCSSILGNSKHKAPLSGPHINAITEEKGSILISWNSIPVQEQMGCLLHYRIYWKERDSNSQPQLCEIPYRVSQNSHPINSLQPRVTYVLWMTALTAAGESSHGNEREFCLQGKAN
Experiment: ELISA, periplasmic extract
Label key: T means OD450 nm under 2; F means OD450 nm of 2 or more.

{"columns": ["BINDER", "ASSIGNED_CATEGORY"],
 "data": [
  ["VHH64B2 (VHH) VHH: QVQLVESGGGLVQPGGSLRLSCAASGFTFSSKAMHWFRQAPGKGLEWVSSINSGGAITYYKDSVKGRFTVSRDNAKNILYLEMNSLKPEDTALYYCATDTDGRTRGQGTQVTVSS", "F"],
  ["VHH19B2 (VHH) VHH: QVQLVESGGGLVQPGGSLRLSCAASGFTFSNYAMSWVRQAPGKGLEWVSAINSDGTSTSYADSVKGQFTISRDNAKNTLYLQMNSLKPEDTAVYYCTKWEGDTDSDYKFKDYWGQGTQVTVSS", "T"],
  ["VHH307B2 (VHH) VHH: QVQLVESGGGLVQAGGSLRLSCAASGRTFSRYIMGWFRQATGKEREFVAAISWSGLSTHYADSVQGRFTISRDNAENTVYLQMNSLKPEDTAVYYCAADRHWETRLLPREYDYWGQGTQVTVSS", "T"],
  ["VHH68B2 (VHH) VHH: EVQLVESGGGLVQAGGSLKLSCAASGGTFSSYAMGWFRQAPGKEREFVAAIMRSGDTTVYVDSVKGRFTVSRDNAKNTVYLQMNSLKPEDAAVYYCAAGRPVTRTYYSTYTYPHDYDYWGQGTQVTVSS", "F"],
  ["VHH190B2 (VHH) VHH: QVQLQESGPGLVKPSQTLSLTCTVSGGSITTNYYYWSWIRQPPGKGLEWMGAIAYSGSTYYSPSLKSRTSISRDTSKNQFTLQLSSVTPEDTAVYYCASGINFYSNYPTLNEYDYWGQGTQVTVSS", "T"],
  ["VHH222B2 (VHH) VHH: QVQLVESGGGLVQAGGSLRLSCAASGRIFSAYRMGWFRQAPGKEREFVAGITWRGQTTYYAASVKGRFTISKDNAKKTVYLQMNSLKPEETAVYYCAVETNGLGRWDRPSEYDYWGQGTQVTVSS", "T"],
  ["VHH85B2 (VHH) VHH: QVQLVESGGGLVQAGGSLRVSCAASGRIPSLNTMAWYRQAPGKQREFVAFITNGGTTNYVDSVEGRFSISRDNTKNAVDLQMNSLKPEDTGVYYCNVQISQYPYNYWGQGTQVTVSS", "F"],
  ["VHH356B2 (VHH) VHH: QLQLVESGGGLVQPGGSLRLSCAASGSIFSINAMGWYRQAPGKQRELVAAITSGGSTAYADSVKGRFTISRDNAKNTVYLQMNSLKPEDTAVYYCNADRDPITSWYVRGDYWGQGTQVTVSS", "F"],
  ["VHH322B2 (VHH) VHH: QLQLVESGGGLVQAGGSLRLSCAASGRTFGIHGMGWFRQAPGKEREFAAAIRWSDGTTIHADSVKGRLTISRDNAKNTVYLQMNSLKPEDTAVYYCAATSNPQFGRNWYTVAAGVEYGYWGQGTQVTVSS", "T"]
]}
